systemTested: TLR4 (Mus musculus)
Construct: endogenous in cells; host or cells: RAW264.7 (murine macrophage cell line)
Sequence (Q9QUK6 26-835): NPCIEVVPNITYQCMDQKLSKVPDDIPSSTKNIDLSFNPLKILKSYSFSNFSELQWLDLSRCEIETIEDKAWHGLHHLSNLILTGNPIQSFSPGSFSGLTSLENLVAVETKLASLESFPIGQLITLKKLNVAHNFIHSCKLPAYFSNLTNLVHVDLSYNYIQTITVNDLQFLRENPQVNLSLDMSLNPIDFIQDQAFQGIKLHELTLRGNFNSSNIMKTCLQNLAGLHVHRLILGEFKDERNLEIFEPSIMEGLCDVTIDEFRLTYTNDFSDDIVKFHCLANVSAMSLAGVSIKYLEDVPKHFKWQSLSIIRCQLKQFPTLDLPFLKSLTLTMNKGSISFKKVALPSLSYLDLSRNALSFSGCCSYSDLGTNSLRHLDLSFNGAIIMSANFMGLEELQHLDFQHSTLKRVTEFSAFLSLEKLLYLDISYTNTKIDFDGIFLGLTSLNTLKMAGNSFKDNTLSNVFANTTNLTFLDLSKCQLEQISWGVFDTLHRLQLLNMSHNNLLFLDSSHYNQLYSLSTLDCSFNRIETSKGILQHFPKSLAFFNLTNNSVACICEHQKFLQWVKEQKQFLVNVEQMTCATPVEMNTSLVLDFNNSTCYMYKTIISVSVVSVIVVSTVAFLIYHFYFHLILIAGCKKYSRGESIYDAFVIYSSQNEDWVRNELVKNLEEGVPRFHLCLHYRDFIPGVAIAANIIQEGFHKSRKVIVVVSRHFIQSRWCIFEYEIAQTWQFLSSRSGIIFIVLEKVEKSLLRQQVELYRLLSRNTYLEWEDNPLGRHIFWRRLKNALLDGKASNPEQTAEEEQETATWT
Sequence (Q9JHF9 19-160 partner): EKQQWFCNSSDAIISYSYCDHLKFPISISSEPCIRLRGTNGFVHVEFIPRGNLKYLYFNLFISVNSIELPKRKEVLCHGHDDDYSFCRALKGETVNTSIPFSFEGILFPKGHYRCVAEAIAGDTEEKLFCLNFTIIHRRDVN
assayDetails: Inhibitory effect with respect to NO production (LPS/interferon γ stimulated RAW264.7 cells)
Format: cell-based, murine
testParameters: test compound 100 nM, LPS 1.25 ng/mL + mouse interferon γ 0.2 ng/mL, nitrite ion in culture supernatant
Description: Inhibitory Effect With Respect to NO Production The inhibitory effect on TLR4 was determined using the inhibition rate due to the test compound with respect to NO production as a result of addition of lipopolysaccharide (LPS) using murine macrophage cell line RAW264.7. […] The cells were further cultured overnight, and then the nitrite ion (stable NO metabolite) concentration in the culture supernatant was measured as an index of NO production. […]
quantityMeasured: NO production inhibitory effect at 100 nM (% inhibition)

>  <molecule>
CCOC(=O)C1=CC2(CCC1S(=O)(=O)Cc1ccc(F)c(Cl)c1)O[C@H](CO)[C@@H](CO)O2 (stereo partly shown)

>  <systemTested>
TLR4 (Mus musculus)

>  <numericValue>
100

$$$$
>  <molecule>
CCOC(=O)C1=CC2(CCC1S(=O)(=O)Cc1cc(F)ccc1Cl)O[C@H](CO)[C@@H](CO)O2 (stereo partly shown)

>  <systemTested>
TLR4 (Mus musculus)

>  <numericValue>
100

$$$$
>  <molecule>
CCOC(=O)C1=CC2(CCC1S(=O)(=O)Cc1ccc(F)cc1Cl)OC[C@@H](CNC(=O)OC(C)(C)C)O2 (stereo partly shown)

>  <systemTested>
TLR4 (Mus musculus)

>  <numericValue>
98

$$$$
>  <molecule>
CCOC(=O)C1=CC2(CCC1S(=O)(=O)Cc1ccccc1Cl)O[C@@H](CO)[C@H](CO)O2 (stereo partly shown)

>  <systemTested>
TLR4 (Mus musculus)

>  <numericValue>
100

$$$$
>  <molecule>
C#CCCCCOC[C@@H]1COC2(C=C(C(=O)OCC)C(S(=O)(=O)Cc3ccc(F)cc3Cl)CC2)O1 (stereo partly shown)

>  <systemTested>
TLR4 (Mus musculus)

>  <numericValue>
94

$$$$
>  <molecule>
CCOC(=O)C1=CC2(CCC1S(=O)(=O)Cc1ccc(F)cc1Cl)O[C@H](COC)[C@@H](COC)O2 (stereo partly shown)

>  <systemTested>
TLR4 (Mus musculus)

>  <numericValue>
110

$$$$
>  <molecule>
CCOC(=O)C1=CC2(CCC1S(=O)(=O)Cc1cccc(C)c1)O[C@@H](CO)[C@H](CO)O2 (stereo partly shown)

>  <systemTested>
TLR4 (Mus musculus)

>  <numericValue>
98

$$$$
